SYSTEM NAME: SpBzz1-D2
EXPERIMENT SUMMARY: SPOT peptide array binding signal intensity (averaged, normalized) (arbitrary units (background-subtracted, floor 0; scale differs between SH3 domains)); higher = stronger binding of the SH3 domain to the peptide
VALUE TYPE: SPOT peptide array binding signal intensity
Note: the reply should be a number with no unit written.

1) GRLRPKRIAPWHLIQ | 1.5
2) QLMKNLPKIPLLNDI | 10.8
3) TTNRGPPPLPPRANV | 11

Qu. Please report the recorded SPOT peptide array binding signal intensity for QNTPPLPPKPKSPHL .
Ans. 2.5

Qu. What do we get for LRIKRKPVQTFFEFI ?
Ans. 0.5

Qu. Consider next the binder NLKKRPPTAPQRKIS in the same way.
Ans. 8.5

Qu. Okay, and NENKKLPPAPTVFGL ?
Ans. 0.25

Qu. What about KMSRSPPRPPSLKII ?
Ans. 79.2

Qu. // repeat for TPRLSLPRLPNKHHW and report
Ans. 0.75

Qu. Next binder up: GAGERPRLVPRPINV
Ans. 0.75

Qu. Here is the next binder: RRARRQMGIPTISQV
Ans. 4.25

Qu. Param item: RRGPAPPPPPRASRP
Ans. 340

Qu. Entry RPPRPPPKPLHLRTE please
Ans. 43

Qu. Then what about the binder IRMPSNPALPKKLLN ?
Ans. 41

Qu. And ISNFVPPNLPMRRFK ?
Ans. 3
